The values you see were collected from patent US4663326A.

Each entry below carries its recorded inhibition at 100 µM.
- assaySystem: Type 2 Phosphodiesterase (Cavia porcellus, UniProt A0A286XUV5)
- Construct: from tissue
- experimentalDetails: PDE inhibition, Type 2 phosphodiesterase, cardiac muscle
- Type: biochemical
- experimentalContext: 1 × 10^-4 M, read-out: % Inhibition of 3H-cGMP Hydrolysis, Type 2 Phosphodiesterase
experimentalEndpoint: inhibition at 100 µM

| compound | testValue |
| --- | --- |
| Cc1nn(C)c2c(=O)n(C)c(=O)n(C)c12 [Example 7] | 36 to 55% |
| CCn1c(=O)c2c(c(C)nn2C)n(CC)c1=O [Example 8] | 56 to 100% |
| CCCn1c(=O)c2c(c(C)nn2C)n(CCC)c1=O [Example 9] | 56 to 100% |
| CCn1nc(C)c2[nH]c(=O)[nH]c(=O)c21 [Example 3] | 36 to 55% |
| CCn1nc(C)c2[nH]c(=O)n(C)c(=O)c21 [Example 6] | 56 to 100% |
| CCCn1c(=O)[nH]c2c(C)nn(CC)c2c1=O [Example 5] | 56 to 100% |
| CCn1c(=O)[nH]c2c(C)nn(CC)c2c1=O [Example 4] | 56 to 100% |

* * *

- assaySystem: adenosine receptors (designated A1) (Rattus norvegicus, UniProt P25099)
- Construct: Whole brain minus cerebellum and brainstem from male Long Evans rats (150-200 g)
- Sequence (P25099 whole entry): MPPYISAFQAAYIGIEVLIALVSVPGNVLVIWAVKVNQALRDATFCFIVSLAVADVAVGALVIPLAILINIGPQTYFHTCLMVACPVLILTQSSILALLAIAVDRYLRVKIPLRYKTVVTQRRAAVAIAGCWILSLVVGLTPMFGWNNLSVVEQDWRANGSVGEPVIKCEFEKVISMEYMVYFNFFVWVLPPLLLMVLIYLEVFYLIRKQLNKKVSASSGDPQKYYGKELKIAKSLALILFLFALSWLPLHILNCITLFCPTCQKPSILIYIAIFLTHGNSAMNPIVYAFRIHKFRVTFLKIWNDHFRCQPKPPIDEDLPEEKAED
- experimentalDetails: Adenosine receptor binding - A1 receptor affinity (RBA1), [3H]-CHA displacement, rat whole brain minus cerebellum and brainstem membranes
- experimentalContext: 1.0 nM [3H]-CHA, 25° C., pH 7.7; repeat tests (Test 1-4) one line each; read-out: RBA-1 (IC50, adenosine A1 affinity)
experimentalEndpoint: IC50 (µM)

| substanceSmiles | testValue |
| --- | --- |
| CCn1nc(C)c2[nH]c(=S)[nH]c(=O)c21 | 19.3 |
| CCn1nc(C)c2[nH]c(=O)n(C)c(=O)c21 | 2.53 |
| CCn1nc(C)c2[nH]c(=O)[nH]c(=O)c21 | 5.88 |
| Cc1nn(C)c2c(=O)[nH]c(=O)[nH]c12 | 11 |

* * *

- assaySystem: Type 2 Phosphodiesterase (Cavia porcellus, UniProt A0A286XUV5)
- Construct: from tissue
- Sequence (A0A286XUV5 22-936): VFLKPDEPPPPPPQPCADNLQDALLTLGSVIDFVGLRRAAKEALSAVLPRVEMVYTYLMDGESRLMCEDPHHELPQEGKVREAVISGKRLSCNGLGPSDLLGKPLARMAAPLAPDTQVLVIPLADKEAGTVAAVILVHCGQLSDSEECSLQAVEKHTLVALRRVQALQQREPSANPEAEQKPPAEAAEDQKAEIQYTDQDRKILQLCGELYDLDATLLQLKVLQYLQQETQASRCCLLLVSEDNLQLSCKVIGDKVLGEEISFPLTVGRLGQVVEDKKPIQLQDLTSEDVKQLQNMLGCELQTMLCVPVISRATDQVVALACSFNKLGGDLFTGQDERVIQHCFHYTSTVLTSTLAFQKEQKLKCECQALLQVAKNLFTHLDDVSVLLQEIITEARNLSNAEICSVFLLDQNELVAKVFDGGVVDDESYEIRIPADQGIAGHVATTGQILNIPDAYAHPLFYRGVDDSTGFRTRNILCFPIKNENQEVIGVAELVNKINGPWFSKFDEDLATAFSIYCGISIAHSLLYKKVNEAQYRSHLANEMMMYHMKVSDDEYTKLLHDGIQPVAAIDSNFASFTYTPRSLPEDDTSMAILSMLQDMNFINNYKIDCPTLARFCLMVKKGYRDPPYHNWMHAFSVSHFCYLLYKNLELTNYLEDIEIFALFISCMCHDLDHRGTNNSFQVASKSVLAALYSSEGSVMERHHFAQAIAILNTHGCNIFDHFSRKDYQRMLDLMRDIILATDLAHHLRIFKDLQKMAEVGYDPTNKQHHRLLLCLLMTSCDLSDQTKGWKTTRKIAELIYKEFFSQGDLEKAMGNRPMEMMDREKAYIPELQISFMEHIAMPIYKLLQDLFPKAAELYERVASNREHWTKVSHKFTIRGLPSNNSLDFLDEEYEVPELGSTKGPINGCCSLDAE
- experimentalDetails: PDE inhibition, Type 2 phosphodiesterase, cardiac muscle
- Assay type: biochemical
- Set-up: dose or concentration left out as unconfirmed
- experimentalContext: read-out: % Inhibition of 3H-cAMP Hydrolysis, Type 2 Phosphodiesterase
inhibition: recorded values
experimentalEndpoint: inhibition

| substanceSmiles | experimentalEndpoint | testValue |
| --- | --- | --- |
| CCn1c(=O)[nH]c2c(C)nn(CC)c2c1=O | inhibition | 56 to 100% |
| CCn1nc(C)c2[nH]c(=O)n(C)c(=O)c21 | inhibition | 36 to 55% |
| CCn1c(=O)c2c(c(C)nn2C)n(CC)c1=O | inhibition | 56 to 100% |
| CCCn1c(=O)[nH]c2c(C)nn(CC)c2c1=O | inhibition | 56 to 100% |
| CCn1nc(C)c2[nH]c(=O)[nH]c(=O)c21 | inhibition | 36 to 55% |
| CCCn1c(=O)c2c(c(C)nn2C)n(CCC)c1=O | inhibition | 56 to 100% |
| Cc1nn(C)c2c(=O)n(C)c(=O)n(C)c12 | inhibition | 36 to 55% |
